The reported numbers originate from the supplement of paper PMC10567573.

B1: MFF (parent)
chain: YTEGISQRMRVPEKLKVAPPNADL

- Variants of: B1
- RUN_DESCRIPTION: protein stability index of a GFP-peptide fusion (GPS, HEK-293T) (PSI 1-6); higher = more stable;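 further: lentivirally expressed fusions sorted by FACS into six bins by GFP to DsRed ratio, PSI derived from sequencing read proportions per bin multiplied by bin number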
- RECORDED_CONDITIONS: c terminus: a fixed tail appended
MEASURED_PROPERTY: protein stability index
Answer as a number with no unit attached.

Solved cases below.
L24W: 2.14
A22C: 2.62
A18G: 2.54
P19D: 3.37
M9G: 2.89
L15V: 3.09

### Prompt Using the record for I5M , report its protein stability index.
### Response 3.4
